Biological target: OTU domain-containing protein 3 (Homo sapiens) (UniProt Q5T2D3)
Sequence (Q5T2D3 whole entry, looked up, the tested form may be a part): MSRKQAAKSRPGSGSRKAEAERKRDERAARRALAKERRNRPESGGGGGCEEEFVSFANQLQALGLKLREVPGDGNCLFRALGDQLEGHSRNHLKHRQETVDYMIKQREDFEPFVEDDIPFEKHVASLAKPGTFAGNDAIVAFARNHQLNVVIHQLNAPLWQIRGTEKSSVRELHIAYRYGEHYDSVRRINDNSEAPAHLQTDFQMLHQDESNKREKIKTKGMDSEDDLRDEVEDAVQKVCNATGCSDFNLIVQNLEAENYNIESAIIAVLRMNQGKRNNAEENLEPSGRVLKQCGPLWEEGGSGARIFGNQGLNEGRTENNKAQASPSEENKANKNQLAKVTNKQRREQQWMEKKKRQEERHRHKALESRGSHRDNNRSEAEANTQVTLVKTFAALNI
Assay: Validation of screening hits, potency titration, in vitro enzymatic, OTU domain-containing protein 3 DUB inhibitors (AID 1645868)
Conditions: purified OTUD3, ubiquitin-rhodamine cleavage fluorescence, 2 h
Activity calls are given as the source filed them.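 How the source made its calls: active means maximal percent inhibition of the deubiquitinase OTUD3 of at least 30% across the tested doses; inactive means the rest.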
Select the correct class. Options are Y = active, N = inactive and nothing else.

Take a look at these entries with their results.
O=C(c1ccsc1)N1CCC2(C1)Nc1cccnc1NC2=NC1CCCC1 (stereo not given) | N
O=C(COc1nc2ccccc2nc1N1CCOCC1)NC(c1ccccc1)c1ccccc1 | N
COc1ccc(C2C(C(=O)Nc3ccccc3OC)=C(C)Nc3nnnn32)cc1Br (stereo not given) | N
COc1ccc(C)cc1NC(=O)C1CC(=O)Nc2nc(SCc3ccccc3)nn21 (stereo not given) | Y
COc1ccc(OC)c(-c2c(C#N)c(C)nc3c2N2CCC3CC2)c1 | Y

GET /call?item= "CCCn1c(=O)c(-c2ccc(C(=O)NCc3ccc(OC)cc3)cc2)nc2cccnc21" returns the recorded outcome of this test. Y

GET /call?item= "O=C(COC(=O)c1ccc2ncsc2c1)Nc1ccccc1F" returns the recorded outcome of this test. N

----------
Molecular target: OTU domain-containing protein 3 (Homo sapiens)
Assay: Validation of screening hits, potency titration, in vitro enzymatic, OTU domain-containing protein 3 DUB inhibitors (AID 1645868)
Conditions: purified OTUD3, ubiquitin-rhodamine cleavage fluorescence, 2 h
Active and inactive are the calls of the source.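 The calls were made as follows: active = maximal percent inhibition of the deubiquitinase OTUD3 of at least 30% across the tested doses; inactive = the rest.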
Select the correct class. Options are true (1) = active, false (0) = inactive and nothing else.

COc1ccc(C(=O)Nc2nc3n(n2)C(c2ccccc2)CC(=O)N3)cc1 (stereo not given) | true (1)
O=C(NCCc1ccco1)c1ccc(N2CCOc3ccccc32)s1 | true (1)
O=C(c1ccc2occc2c1)N1CCC(S(=O)(=O)c2ccc(-c3ccco3)cc2)CC1 | false (0)
O=C(Nc1nc2c(ccc3ccccc32)s1)c1cccc(Br)c1 | true (1)

Consider the additional compound presented here.
GET /call?item= "Cc1ccc(-c2noc(-c3nnc(SCC(=O)NC4CCCC4)n3C)n2)cc1" returns the recorded outcome of this test. false (0)

----------
Biological target: OTU domain-containing protein 3 (Homo sapiens)
Assay: Validation of screening hits, potency titration, in vitro enzymatic, OTU domain-containing protein 3 DUB inhibitors (AID 1645868)
Conditions: purified OTUD3, ubiquitin-rhodamine cleavage fluorescence, 2 h
Calls of active or inactive are those of the source.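 How the source made its calls: active means maximal percent inhibition of the deubiquitinase OTUD3 of at least 30% across the tested doses; inactive means the rest.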
Select the correct class. Options are yes = active, no = inactive and nothing else.

Take a look at these entries with their results.
CC(C)CCN1C(=O)C2C(C(=O)Nc3ccc(Oc4ccccc4)cc3)C3C=CC2(O3)C1C(=O)NC1CCCCC1 (stereo unspecified) | yes
CC1=CN2C(=N)/C(=C/c3cn(Cc4ccc(Cl)cc4)c4ccccc34)C(=O)N=C2S1 | no
N#Cc1c(-c2cccs2)cc(-c2cccs2)[nH]c1=O | no

GET /call?item= "O=C(NC1CCN(c2nc(-c3cccnc3)nc3ccccc23)CC1)c1cccnc1" returns the recorded outcome of this test. no

GET /call?item= "COc1cccc(NC(=O)Cn2c(COc3ccccc3)nc3ccccc32)c1" returns the recorded outcome of this test. no

GET /call?item= "O=C(/C=C/c1c(F)cccc1Cl)N1CCc2ccccc2C1" returns the recorded outcome of this test. no

GET /call?item= "Nc1nc(-c2ccc[nH]2)cs1" returns the recorded outcome of this test. no

GET /call?item= "CCOC(=O)c1cnc(C(F)(F)F)nc1Sc1n[nH]c(-c2cccs2)n1" returns the recorded outcome of this test. no

GET /call?item= O=C(NCc1ccc2c(c1)OCO2)c1ccc(C2SCC(=O)N2Cc2ccco2)cc1 (stereo unspecified) returns the recorded outcome of this test. no

GET /call?item= CS(=O)(=O)NC1CCCN(C(=O)Nc2cccc3ccccc23)C1 (stereo unspecified) returns the recorded outcome of this test. no

GET /call?item= "O=C(COc1ccc2c(c1)CCC2)Nc1ccc2c(c1)CCC2" returns the recorded outcome of this test. no
